- study-target: BCL6-SMRT (NCOR2) corepressor protein-protein interaction (Homo sapiens, UniProt P41182)
- Construct: DNA encoding full length BCL6 and SMRT; expressed in transfected cells; host or cells: HEK293T
- procedure-summary: NanoBRET cellular assay (HEK293T)
- Type: cell-based
- condition-description: HEK-293T, Table S2, several values per compound; read-out: BCL6 NanoBRET IC90 Geometric Mean
The molecules listed here are annotated with their IC90.

Example molecules with recorded IC90:
[
  {
    "molecule": "Cn1c(=O)c2c(c3cc(Nc4nc(N5CC(C#N)C5)ncc4Cl)ccc31)N[C@@H](C1CC1)C(F)(F)CO2 [compound 12]",
    "value-measured": "532 nM"
  },
  {
    "molecule": "Cc1nccc(Nc2ccc3c(c2)c2c(c(=O)n3C)OCC(F)(F)[C@H](C3CC3)N2)c1Cl [compound 16]",
    "value-measured": "639 nM"
  },
  {
    "molecule": "Cn1c(=O)c2c(c3cc(Nc4nc(N5C6CCC5COC6)ncc4Cl)ccc31)N[C@@H](C1CC1)C(F)(F)CO2 [compound 4]",
    "value-measured": "185 nM"
  }
]

Now examine the next entry.
Input: I'm curious: which IC90 was measured for Cn1c(=O)c2c(c3cc(Nc4ccnc(Cl)c4F)ccc31)N[C@@H](C1CC1)C(F)(F)CO2 [compound 18] tested on BCL6-SMRT (NCOR2) corepressor protein-protein interaction (Homo sapiens, UniProt P41182)?
Output: 625 nM
